# Assay Text: Solubility
# Assay type: physicochemical
# Setup Conditions: water, 25°
Where a name gives a salt, the structure may show the parent alone.
Measurement Type: solubility

Would you mind telling me what solubility value was observed for CCCN(CCC)C(=O)C(CCC(=O)OCCCN1CCN(CCOC(=O)Cc2c(C)n(C(=O)c3ccc(Cl)cc3)c3ccc(OC)cc23)CC1)NC(=O)c1ccccc1 (racemic) [CR 604 di-hydrochloride] ?
~5000 µg/mL

====

# Assay Text: Solubility
# Format: physicochemical
# Setup Conditions: methanol

| Compound | solubility in methanol |
| --- | --- |
| CCCN(CCC)C(=O)C(CCC(=O)OCCCN1CCN(CCCOC(=O)Cc2c(C)n(C(=O)c3ccc(Cl)cc3)c3ccc(OC)cc23)CC1)NC(=O)c1ccccc1 (racemic) [CR 613 (di-maleate)] | more soluble |
| CCCN(CCC)C(=O)C(CCC(=O)OCCCN1CCN(CCOC(=O)Cc2c(C)n(C(=O)c3ccc(Cl)cc3)c3ccc(OC)cc23)CC1)NC(=O)c1ccccc1 (racemic) [CR 604 (di-maleate)] | more soluble |
| CCCN(CCC)C(=O)C(CCC(=O)OCCN1CCN(CCOC(=O)Cc2c(C)n(C(=O)c3ccc(Cl)cc3)c3ccc(OC)cc23)CC1)NC(=O)c1ccccc1 (racemic) [CR 626 (di-maleate)] | more soluble |
